- Tested on: Sonic hedgehog protein (Shh)
- Assay Summary: small-molecule binders of Shh protein, primary screen, biochemical, small-molecule microarray, 635/667 nm fluorescence (AID 1151);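 note: Shh protein binding to compounds spotted on small-molecule microarray slides; score combines spot fluorescence intensity with signal-to-noise across triplicate slides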
- Measurement Parameters: small-molecule microarray binding, 635 nm fluorescence; higher = more signal
Metric Name: composite z-score
API doc: respond with a numeric literal and nothing else, no unit.

Consider the reported composite z-score for these compounds:
Given Smiles	composite z-score
COC(=O)[C@@H]1CC[C@H](C)[C@@H](c2ccc(C)cc2)N1C(=O)c1ccc(C=NO[C@@H](C)c2cn([C@H](CO)Cc3ccccc3)nn2)cc1	0.738
C[C@@H]1CC[C@H]2C(=O)O[C@@H](COc3ccc(C(C)(C)C)cc3)CN2[C@@H]1c1ccc(Br)cc1	-0.445
COC(=O)CC=C[C@@H](C)[C@@H](C=NO[C@H](C)c1cn([C@@H]2COC[C@H]2O)nn1)NS(=O)(=O)c1ccc(C)cc1	0.691

IN: So what's the measured composite z-score for this one? "O=C1[C@H]2[C@H]3[C@H](O)[C@H](O)CC(=NOCc4ccccc4)[C@@H]3CC[C@H]2C(=O)N1c1ccc(F)cc1F"
OUT: 0.068
